Taken from paper PMC9276671.

# Assay notes: Plasma pharmacokinetics of ALM201 in Phase I patients (validated LC-MS/MS, Phoenix WinNonlin)
# Condition summary: human, plasma, sc, 100 mg, Cmax, Gmean (CV), 100 mg SC, day 1 cycle 1, n = 4; plasma LC-MS/MS
No end group written: not given here.
Measurement name: Cmax (ng/mL)

Primary sequence: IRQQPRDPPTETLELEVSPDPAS [ALM201]
Measurement name: Cmax
Val: 1810

====

# Assay notes: Plasma pharmacokinetics of ALM201 in Phase I patients (validated LC-MS/MS, Phoenix WinNonlin)
# Condition summary: human, plasma, sc, 100 mg, Plasma concentration, geometric mean (CV%), 100 mg SC, day 3 cycle 1, 0.5 h after dosing, n = 4; LC-MS/MS
No end group written: not given here.
Measurement name: level at 0.5 h

Primary sequence: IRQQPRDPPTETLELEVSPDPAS [ALM201]
Val: 1730 ng/mL
